Taken from patent US20220177587A1.

assayed target: CD28 (human) (UniProt P10747)
method notes: flow cytometry, Jurkat/IL2 reporter cells (CD28), vs WT CD80 ECD-Fc (R&D)
quantity measured: Fold change to WT CD80 (fold)

[1] variant CD80 IgV-Fc E35D/M47I/L85Q/D90G (Fc fusion) VIHVTKEVKEVATLSCGHNVSVEELAQTRIYWQKDKKMVLTMMSGDINIWPEYKNRTIFDITNNLSIVILALRPSDEGTYECVVQKYEKGAFKREHLAEVTLSVKAD
[2] variant CD80 IgV-Fc R29H/E35D/M43V/M47I/I49V (Fc fusion) VIHVTKEVKEVATLSCGHNVSVEELAQTHIYWQKDKKMVLTMVSGDINVWPEYKNRTIFDITNNLSIVILALRPSDEGTYECVVLKYEKDAFKREHLAEVTLSVKAD
Q) Given 1 and 2 , report the one with the higher recorded Fold change to WT CD80. Your choice should be expressed through its label.
A) 1
(1: 0.23 fold, 2: 0.02 fold)
